# protocol.summary: yeast display, Sf9 membrane polyspecificity reagent, FACS + sequencing; frameworks hold sequencing errors
measured.attribute: polyreactivity (PSR sort gate)

Reference set (4 entries):
QVQLVESGGGLVQAGGSLRLSCAASGITFYTYAMGWYRQAPGKERELVAAITWRGGRTSYADSVKGRFTISRDNAKNTVYLQMNSLKPEDTAVYYCAKEAHPPWTSQDVFRSYDYWGQGTQVTVSS low polyreactivity
QDQHVESGGGLVQAGGSLRLSIAASASTIGFNAMGWYRQAPGKERELVAAITFSGGTTYYADSVKGRFTISRDNAKNTVYFQMNSLKPEDTAVYYCNADWWYQYSGPFAPWGEDYWGQGTQVTVSS low polyreactivity
QVQLVESGGGLVQAGGSLRLSCAASGSIFRAYAMGWYRQAPGKERELVAGITKSGGSTYYADSVKGRFTISRDNAKNTVYLQMNILKPEDTAVYYCAAYRSRTYGYWGQGTQVTVSS high polyreactivity
QVQLVESGGRLVQAGGSLRLSCAASGSTFDENAMGWYRQAPGKERELVAAISRRGVSTYYADSVKGRFTISRDNEKNTVYLQMNSVKPEDTAVYYCARRYGGVGMYYWGQGTQVTVSS high polyreactivity

Turning now to a further record.
For QVHLVESGGGLVQAGGSLRLSCAASGFTFVSYAMGWYRQAPGKERELVDDINQSGGSTYYADSLKGRFTISRDNAKNTVYLQMNSQKPEDTAVYYCARDGDLWYYKGYGTLFDYWGQGTQVTVSS , what is its reported polyreactivity (PSR sort gate)? low polyreactivity

* * *

# protocol.summary: yeast display, Sf9 membrane polyspecificity reagent, FACS + sequencing; frameworks hold sequencing errors
measured.attribute: polyreactivity (PSR sort gate)

Reference set (5 entries):
QVQLVESGGGLVKAGGSLRLSCAASGFIFRYYAMGWYRQAPGKERELVAAITSTGRTYYADSVKGRFTISRDNAKNTVYLQMNSLKPEDTAVYYCAKRSYPWGQGTQVTVSS low polyreactivity
QVQLVESGGGLVQAGGSLRLSCAASGSIFLQYAMGWYRQAPGKERELVAAITTSGRTYYADSVKGRFTISRDNAKYTVYLQMNSLKPEDTAVYYCAATWRYGYYAYYYWGQGTQVTVSS high polyreactivity
QVQLVESGGGLVQAGGILRLSCASSGFTFSLYDMGWYRQAPRKDRELVADINGSGGSTYYADSVKGRFTISRDNAKNTVYLQLNILKPEDTAVYYCAAGPPSRWWYIVDYGYWGQGTQVTVSS high polyreactivity
QVQLVESGGGLVQAGGSLRLSCAASGRIFGYTMGWYRPAPGKERELVAAISKSGGSTYYADSVKGRFTISRDNAKNTVYLQMNSLKPEDTAVYYCNKPQRILYDYWGQGTQVTVSS high polyreactivity
QVQLVESGGGLVQAGGSLRLSCAASGSTFITYAMGWSRQAPGKERELVAAISDSGGDTYYADSVKGRFTISRDYAKNTVYLQMISLNPEDTAVFYCAAEDDRYVYGDMNYWGQGTQVTVSS low polyreactivity

Would you mind listing polyreactivity (PSR sort gate) for each of the following sequences?
1. QVQLVESGGGLVQAGGSLRLSCAASGSIFYGYAMGWYSQAPGKERELVAAISSSGGSTYYADSVKGRFTISRDNAKNTVYLQMNSLKTEDTAVDYCAADWDFVNGWFNYWGKGTQVTVSS
2. QVQLVESGGGLVQAGGSLRLSCAASGRILSRYAMGWYRQAPGKERELVAAINKSGGSTYYADSVKGRFTISRDNAKNTVYLQMNSLKPEDTAVFYCNAVYYWYKGDYWGQGTQVTVSS
3. QVQLVESGGGLVQAGGSLRLSCAASGNIFSVYAMVWYRPAPGKERELVAAISSSGGRTYYADSVKGRFTISRDNAKNTVYLQMNSLKPEDTAVYYCAARSYTGQFGYWGQGTQVTVSS
4. QVHLVESGGGLVQAGGSLRLSCAASGFTFTLYAMGWYRQAPGKERELVAAIYFSGGNTYYADSVKGRFTISRDNAKNTVYLQMNSLKPEDTAVYYCAAEYYPSASYYYGWYTIFWLITRDDYYWGQGTQVTVSS
5. QVQLVESGGGLVQAGGSLRLSCAASGFTFKWYTMGWYRQAPGKERELVAGISRRGGSTYYADSVKGRFTISRDNAKNTVYLQMNSLKPEDTAVYYCAAEFPTVYFPWSEMDYWGQGTQVTVSS
6. QVQLVESGGGLVQAGGSLRLSCAASGRTFRRTAMGWYRQAPGKERELVAAISSRGGSTYYADSVKWRFTISRDNAKNTVYLQMNSLKPEDTAVYYCNRVLTPIWYYVPLYSQPTYYYWGQGTQVTVSS

high polyreactivity
high polyreactivity
high polyreactivity
high polyreactivity
high polyreactivity
high polyreactivity

* * *

# protocol.summary: yeast display, Sf9 membrane polyspecificity reagent, FACS + sequencing; frameworks hold sequencing errors
measured.attribute: polyreactivity (PSR sort gate)

QVQLVESGGGLVQAGGSLSLSCAASGLTIYLYAKGWYRQPPGNERELVAAISRSGGSTYYADSVKGRFTISRDNAKNTVYLQMNSLKPEDTAVYYCAAVSYYPEIRKYYYWGQGTQVTVSS high polyreactivity
QLQLVESGGGLVQAGGSLRLSCAASGRTFERNAMGWYRQARGQERELVAAITWSGVSTYYADSVKGRFTISRDNAKNTVYLQMNSLKPEDTAVYYCAADWDWRFHRMNYWGQGTQVTVSS low polyreactivity
QVQLVESGGGLVQAGGSLRLSCAASGSTFSANAMGWYRQAPGKERELVASISRGGGSTYYADSVKGRFTISRDTAKNTVYLQMNSLKPDDTAVYYCAAVYYRRISQGDTQTYYQYNYWGQVTQVTVSS high polyreactivity
QVQLVESGGGLVQAGGSLRLSCAASGIIFAWYAMGWYRQAPGKERELVAAINWSGGSTYYADSVKGRFTISRDYAKNTVYLQMNSLKPEDTAVYYCARSSRGKLDYWGQGTQVTVSS low polyreactivity
QVQLVESVGGLVQAGGSLRLSSAASGFTFKYYAMVWYRQAPGKERELVAAISWSGTRTYYADSVKGRVTISRDNAKYTVYLQMNSLKPEDTAVYYCDADFNGRYDYWGQGTQVTVSS high polyreactivity
QVQLVESGGGLVQAGGSLRLSCAASGSIFSGNAMGWYRQAPGKKGVGCRYYSCWFYDYADSVKGRFTISRDNAKNTVYLQMNSLKPEDTAVYYCAKSNYVRSEFNYWGQGTQVTVSS low polyreactivity

Would you mind listing polyreactivity (PSR sort gate) for each of the following sequences?
1. QVQLVESGGGLVQAGGSLRLICAASGSTFTRYAMGWYRQAPRKERELVAAISRGGSTNYADSVKGRFTISRDNAKNTVYLQMNSLKPEDTAVYYCAAARYRYYLGFGYDYWGQGTQVTVSS
2. QVQHVESGGGLVQAGGSLRLSCAASGSTFWYYDMGGYRQAPGKERELVAAISTRGDSTYYADSVKGRFTISRDNAKNTVYLQMNSLKPEDTAVYYCAKSRQSSGRVRFDYWGQGTQVTVSS
3. QVQLVESGGGLVQAGGSLRLSCAASGLTFPYYAMGWYRQAPGKERELVAAISGGGRTYYADSVMGRFTISRDNAKNTVYLQMNSLKPEDTAVYYCAPFHVGRYTGTVTDGYDYWGQGTQVTVSS
4. QVQHVESGGGLVQAGGSLRLSCAASGRTFWINAMGWYRQARGKERELVAAITRGGRTYADSVKGRFTISRDNAKNSVYLQMNSLKPEDTAVYFCAADSYRLSGHHGYDFWGQGTQLTVSS
5. QVQLVESGGGLVQAGGSLRLSCAASGSIFYYKYAMGWYRQAPGKERELVAAITSTGGTTYYADSVKGRFTISRDNAKNTVYLQMNSLKPEDTAVYYCAALAPYIGGVDYDYWGQGTQVTVSS

1: high polyreactivity; 2: low polyreactivity; 3: high polyreactivity; 4: high polyreactivity; 5: low polyreactivity

* * *

# protocol.summary: yeast display, Sf9 membrane polyspecificity reagent, FACS + sequencing; frameworks hold sequencing errors
measured.attribute: polyreactivity (PSR sort gate)

QVQLEESGGGLVQAGGSLRLSCAASGSTFRYYAMGWYRQAHGKERELVAGISSSGGSTYYADSVKGRFTISRDNAKNTVYLQMNSLKPEDTAVYYCNAARGSSRSWAVFADYDYWGQGTQVTVSS high polyreactivity
QDQHVESGGGLVQAGGSLRLSCAASGRIFFHNAMGWSRQAPGKERELVAAIRSSTGSTYYADSVKGRFTISRDNAKNTVYLQMNSLKPEDTAVYYCARYAYANAYYGKSYWMGYWGQGTQVTVSS high polyreactivity
QVQLVESGGGLVQAGGSLRLSCAAYGIIFSYNVMGWYRQAPGKEREYVAAITRSGGSTYYADSVKGRFTISRDNAKNTVYLQMNSLKPEDTAVYYCAATTWSGPSRYYDWGQGTQVTVSS high polyreactivity

* * *

# protocol.summary: yeast display, Sf9 membrane polyspecificity reagent, FACS + sequencing; frameworks hold sequencing errors
measured.attribute: polyreactivity (PSR sort gate)

Reference set (6 entries):
QVQLVESGGGLVQAGGSLSLSCAASGSIFGVNAMGWYRQAPGKERELVAAITLRSGSTYYADSVKGRFTISRDNAKNTVYIQMNSLKPEDTAVYYSATYSWGVDRPNYNYWGQGTQVTVSS low polyreactivity
QVQLVESGGGLVQAAGSLRLSCAASGSIFDPNVMGWYRQAPGKERELVATISSDGTTTYADSVKGRFTISRDNAKNTVYLQMNSLKPEDTAVYYCATEWDIDPRRSVGYPIGYGYWGQGTQVTVSS low polyreactivity
QVQLVESGGGLVQAGGSLRLSCAASGLTFAYYDMGWYIQAPGKEREMVAAITSGGTTNYADSVKGSFTISRDNANNTVYFQMNSLKPEDTAVYYCNADYYSRIVGVRIYEYWGQGTQVTVSS low polyreactivity
QVQLVESGGGLVQAGGSLRLSCAASGSIFLSYAMGWYRQAPGKERELVAAISRRGVRTYYADSVKGRFTISRDNAKNTVYLQMNSLKPEDTAVYYCAKDAYFPPWTYGSIFGLYDYWGQGTQVTVSS low polyreactivity
QVQLVESGGGLVQAGGSLRLSCAASGIIPSYAMGWYRQAPGKERELVAGISRSGGSTYYADSVKGRFTISRDNAKNTVYLQMNSLKPEDTAVYYCAARVKVRDFKGYYWGQGTQVTVSS high polyreactivity
QVQLVESGGGLVQAGGSLRLSCAASGFTFYRYAMGWYRQAPGKEREFVASISWSGGSTYYADSVKGRFTISRDNAKNTVYLQMNSLKPEDTAVYYCAATSQAYWDLWSTYYTYYYWGQGTQVTVSS high polyreactivity

Would you mind listing polyreactivity (PSR sort gate) for each of the following sequences?
1. QGQLVESGGGLVQAGGTLRLSCAASGSTFAVYVMGGYRQAPGTERELVAAISTSGARTYYADSVKGRFTISRDNAKNTVYLQMNSLKPEDTAVYYCAARSNALFRFDYWGQGTQVTVSS
2. QGQLVESGGGLVQAGGSLRLSCAASGRIFYAYAMGWYRQAPGKERELGAAITSSGGRTYYADSVKGRFTISRDTAKNTVYLQLNSLKPEDTAVYYCAAYDYWGQGTQVTVSS
3. QVQLVESGGGLVQAGGSLRLSCAASGIFVVYAMGWYRQAPGKERELVAAISSGVSTTYADSVKGRFTISRDNAKNTVYLQMNSLKPEDTAVYYCNTLWGHQYIVPYRTREFYYWGQGTQVTVSS

["high polyreactivity", "low polyreactivity", "low polyreactivity"]

Would you mind listing polyreactivity (PSR sort gate) for each of the following sequences?
1. QVQLVETGGGLVQAGGSLRLSCAASGSTFGYNGMGWYRQAPGKERELVAAISGGARTYADSVKGRFTISRDNAKNTVYLQMNSLIPEDTAVYYCAADSPVSVTADDGYWGLGTQVTVSS
2. QVQLVESGGGLVQAGGSLRLSCAASGRTFRSYDMGWYRQAPGKERELVAAISEDGGYTYYADSVKGRFTISRDNAKNSVYLQMNSVKPEDTAVYYCAKDRPGPLRWWFLYGYWGQGTQVTVSS

1. low polyreactivity
2. low polyreactivity
